molecular target: bispecific binding molecule comprising a first specific binding molecule (comprising SEQ ID NO:265 a)
Sequence (chain, as listed by the source, chain 1 of 3): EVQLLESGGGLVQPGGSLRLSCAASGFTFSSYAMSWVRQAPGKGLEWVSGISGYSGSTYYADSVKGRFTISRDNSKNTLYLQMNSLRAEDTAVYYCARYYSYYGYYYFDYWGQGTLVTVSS
Sequence (chain, as listed by the source, chain 2 of 3): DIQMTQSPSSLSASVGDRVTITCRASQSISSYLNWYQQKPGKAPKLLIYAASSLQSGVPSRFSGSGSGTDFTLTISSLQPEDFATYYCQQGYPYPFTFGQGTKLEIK
Sequence (chain, as listed by the source, chain 3 of 3): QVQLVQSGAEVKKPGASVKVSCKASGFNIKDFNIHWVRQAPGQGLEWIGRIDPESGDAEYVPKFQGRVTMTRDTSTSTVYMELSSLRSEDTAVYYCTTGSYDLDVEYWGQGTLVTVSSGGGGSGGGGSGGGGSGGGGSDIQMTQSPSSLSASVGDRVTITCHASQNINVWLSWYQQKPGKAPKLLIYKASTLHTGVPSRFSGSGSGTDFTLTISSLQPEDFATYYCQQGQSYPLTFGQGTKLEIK
Measured pKd, listed per entry for reference.
# reply with the number alone; pKd is -log10 of concentration in mol/L

Problem: Look up pKd for this binder: FIGITELLK (modifications not checked) [tag moiety … (SEQ ID NO:3)]
Result: 10.20
